target: LDHB (Homo sapiens); experiment: Differential scanning fluorimetry; assay type: binding
Observed property: Kd (µM)

> print(dat)
                                   molecule  observed.property  observed.measurement
1  Nc1ncnc2c1ncn2[C@@H]1O[C@H](COP(=O)(O)OP(=O)(O)OP(=O)(O)O)[C@@H](O)[C@H]1O [ATP, adenosine triphosphate]                 Kd                   697

----------
biological target: LDHB (Homo sapiens, UniProt P07195); assay: MIDAS protein-metabolite interaction screen; type: binding; settings: significant PMI Q < 0.01
Sequence (P07195 whole entry): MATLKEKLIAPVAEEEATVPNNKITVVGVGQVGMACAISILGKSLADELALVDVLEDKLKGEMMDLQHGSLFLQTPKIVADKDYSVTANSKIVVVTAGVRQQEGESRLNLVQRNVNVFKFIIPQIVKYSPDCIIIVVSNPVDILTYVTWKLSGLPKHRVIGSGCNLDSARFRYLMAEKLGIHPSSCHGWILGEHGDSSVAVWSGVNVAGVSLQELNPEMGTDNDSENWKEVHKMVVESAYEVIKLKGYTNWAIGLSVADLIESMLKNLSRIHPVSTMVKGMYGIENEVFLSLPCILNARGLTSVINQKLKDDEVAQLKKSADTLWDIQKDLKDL

Compound	MIDAS protein-metabolite interaction
NC(=O)c1ccc[n+]([C@@H]2O[C@H](COP(=O)([O-])OP(=O)(O)OC[C@H]3O[C@@H](n4cnc5c(N)ncnc54)[C@H](O)[C@@H]3O)[C@@H](O)[C@H]2O)c1 [NAD, nicotinamide adenine dinucleotide]	interactions
NC(=O)C1=CN([C@@H]2O[C@H](COP(=O)(O)OP(=O)(O)OC[C@H]3O[C@@H](n4cnc5c(N)ncnc54)[C@H](O)[C@@H]3O)[C@@H](O)[C@H]2O)C=CC1	interactions
Cc1cc2nc3c(=O)[nH]c(=O)nc-3n(C[C@H](O)[C@H](O)[C@H](O)COP(=O)(O)OP(=O)(O)OC[C@H]3O[C@@H](n4cnc5c(N)ncnc54)[C@H](O)[C@@H]3O)c2cc1C [flavin adenine dinucleotide]	interactions
O=C(O)CC(=O)C(=O)O [oxaloacetate]	interactions
NC(=O)c1ccc[n+]([C@@H]2O[C@H](COP(=O)([O-])O)[C@@H](O)[C@H]2O)c1 [nicotinamide mononucleotide]	interactions

----------
target: CASTOR1 (Homo sapiens); test: MIDAS; assay type: binding; conditions: significant PMI Q < 0.01
Sequence (Q8WTX7 whole entry): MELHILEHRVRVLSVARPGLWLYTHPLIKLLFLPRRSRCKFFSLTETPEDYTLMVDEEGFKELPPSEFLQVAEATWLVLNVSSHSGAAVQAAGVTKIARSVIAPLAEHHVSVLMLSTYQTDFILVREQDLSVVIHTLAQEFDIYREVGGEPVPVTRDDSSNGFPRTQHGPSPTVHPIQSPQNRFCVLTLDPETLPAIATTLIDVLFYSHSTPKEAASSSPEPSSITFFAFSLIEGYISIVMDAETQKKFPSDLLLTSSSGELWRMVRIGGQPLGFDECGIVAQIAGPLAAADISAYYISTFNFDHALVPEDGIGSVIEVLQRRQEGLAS
Observed property: MIDAS protein-metabolite interaction

> print(dat)
                     compound                     observed.property  observed.measurement
1        NCCCCCN [cadaverine]  MIDAS protein-metabolite interaction                  bind
2  NCCCN [1,3-diaminopropane]  MIDAS protein-metabolite interaction                  bind
3     NCCCCN=C(N)N [agmatine]  MIDAS protein-metabolite interaction                  bind

----------
target: ENO1 (Homo sapiens, UniProt P06733); assay: Differential scanning fluorimetry; format: binding
Sequence (P06733 whole entry): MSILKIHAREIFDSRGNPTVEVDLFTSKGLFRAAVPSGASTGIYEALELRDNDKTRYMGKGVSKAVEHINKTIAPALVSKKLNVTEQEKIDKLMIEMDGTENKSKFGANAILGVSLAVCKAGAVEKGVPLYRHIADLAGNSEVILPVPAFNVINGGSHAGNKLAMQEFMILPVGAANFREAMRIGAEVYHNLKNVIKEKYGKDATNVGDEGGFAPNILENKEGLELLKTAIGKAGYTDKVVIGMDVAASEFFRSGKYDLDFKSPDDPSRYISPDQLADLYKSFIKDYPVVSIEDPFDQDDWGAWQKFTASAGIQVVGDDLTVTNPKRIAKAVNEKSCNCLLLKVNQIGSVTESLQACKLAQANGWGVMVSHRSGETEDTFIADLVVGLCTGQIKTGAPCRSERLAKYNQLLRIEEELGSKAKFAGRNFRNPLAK
Observed property: Kd (µM)

> print(dat)
                 given.smiles                   measurement.target  unit.of.measurement  observed.measurement
1  N[C@@H](COP(=O)(O)O)C(=O)O  ENO1 (Homo sapiens, UniProt P06733)                   µM                  1380

----------
target: Sestrin2 (Homo sapiens, UniProt P58004); assay: MIDAS protein-metabolite interaction screen; assay type: binding; conditions: significant PMI Q < 0.01
Sequence (P58004 whole entry): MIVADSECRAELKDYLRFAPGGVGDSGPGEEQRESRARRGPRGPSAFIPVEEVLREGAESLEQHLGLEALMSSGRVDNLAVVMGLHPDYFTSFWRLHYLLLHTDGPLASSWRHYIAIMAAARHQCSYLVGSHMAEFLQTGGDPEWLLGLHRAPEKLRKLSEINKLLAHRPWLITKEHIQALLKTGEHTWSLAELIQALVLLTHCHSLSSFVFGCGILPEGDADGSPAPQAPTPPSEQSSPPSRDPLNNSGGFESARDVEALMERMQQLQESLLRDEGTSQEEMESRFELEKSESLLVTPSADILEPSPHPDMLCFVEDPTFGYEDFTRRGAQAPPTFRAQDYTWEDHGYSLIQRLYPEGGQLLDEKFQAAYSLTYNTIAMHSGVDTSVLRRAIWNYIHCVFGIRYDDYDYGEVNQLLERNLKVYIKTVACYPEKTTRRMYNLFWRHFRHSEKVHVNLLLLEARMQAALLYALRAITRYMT
Observed property: MIDAS protein-metabolite interaction

> print(dat)
   given.smiles                     observed.property  observed.measurement
1         NCCCN  MIDAS protein-metabolite interaction                  bind
2       NCCCCCN  MIDAS protein-metabolite interaction                  bind
3  NCCCCN=C(N)N  MIDAS protein-metabolite interaction                  bind

----------
target: LDHA (Homo sapiens, UniProt P00338)
Observed property: Kd (µM)

> print(dat)
                                   compound  observed.measurement
1  Nc1ncnc2c1ncn2[C@@H]1O[C@H](COP(=O)(O)OP(=O)(O)OP(=O)(O)O)[C@@H](O)[C@H]1O [ATP, adenosine triphosphate]                   636

----------
molecular target: ENO2 (Homo sapiens); assay: Differential scanning fluorimetry; assay type: binding
Sequence (P09104 whole entry): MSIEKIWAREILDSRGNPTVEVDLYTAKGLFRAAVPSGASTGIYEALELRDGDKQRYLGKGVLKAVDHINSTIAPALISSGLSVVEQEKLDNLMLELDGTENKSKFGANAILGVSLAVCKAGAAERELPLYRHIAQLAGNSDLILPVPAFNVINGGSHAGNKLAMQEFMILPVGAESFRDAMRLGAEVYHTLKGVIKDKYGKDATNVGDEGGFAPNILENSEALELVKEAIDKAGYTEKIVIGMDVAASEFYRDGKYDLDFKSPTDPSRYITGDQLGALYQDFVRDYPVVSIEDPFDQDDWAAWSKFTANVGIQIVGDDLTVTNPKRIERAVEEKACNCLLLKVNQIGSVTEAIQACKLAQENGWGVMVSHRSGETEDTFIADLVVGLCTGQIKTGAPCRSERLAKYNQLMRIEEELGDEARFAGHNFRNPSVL
Observed property: Kd

> print(dat)
                 given.smiles  observed.measurement
1  N[C@@H](COP(=O)(O)O)C(=O)O               1150 µM

----------
Target: fumarase (Homo sapiens, UniProt P07954)
Sequence (P07954 45-510): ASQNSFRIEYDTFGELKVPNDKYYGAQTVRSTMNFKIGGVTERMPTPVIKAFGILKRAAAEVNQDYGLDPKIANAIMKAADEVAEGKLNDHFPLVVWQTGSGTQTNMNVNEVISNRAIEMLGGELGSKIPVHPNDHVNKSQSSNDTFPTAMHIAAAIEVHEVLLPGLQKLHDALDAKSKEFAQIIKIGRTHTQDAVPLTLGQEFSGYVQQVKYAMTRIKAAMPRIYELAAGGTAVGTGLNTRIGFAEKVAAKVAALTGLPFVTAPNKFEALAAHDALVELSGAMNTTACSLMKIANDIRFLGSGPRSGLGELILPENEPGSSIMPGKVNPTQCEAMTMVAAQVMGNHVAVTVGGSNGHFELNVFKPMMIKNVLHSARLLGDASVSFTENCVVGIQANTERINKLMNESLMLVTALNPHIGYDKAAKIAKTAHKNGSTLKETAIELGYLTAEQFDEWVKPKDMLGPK
Assay: Differential scanning fluorimetry
Format: binding
pKd: −log10 of the molar value.
Observed property: pKd

> print(dat)
                                  compound                       measurement.target  observed.measurement
1  NC(CP(=O)(O)O)C(=O)O (stereo not shown)  fumarase (Homo sapiens, UniProt P07954)                  3.01

----------
molecular target: GAPDH (Homo sapiens, UniProt P04406); test: MIDAS protein-metabolite interaction screen; type: binding; conditions: significant PMI Q < 0.01
Sequence (P04406 whole entry): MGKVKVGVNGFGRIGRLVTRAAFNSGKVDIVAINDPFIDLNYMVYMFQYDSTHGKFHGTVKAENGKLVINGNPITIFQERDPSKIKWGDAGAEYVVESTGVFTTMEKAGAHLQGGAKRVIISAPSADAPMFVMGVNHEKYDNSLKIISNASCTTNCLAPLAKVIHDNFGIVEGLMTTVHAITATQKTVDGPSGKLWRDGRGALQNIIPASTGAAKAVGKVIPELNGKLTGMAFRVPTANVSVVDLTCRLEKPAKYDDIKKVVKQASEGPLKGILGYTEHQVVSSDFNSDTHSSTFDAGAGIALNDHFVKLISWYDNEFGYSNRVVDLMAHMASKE
Observed property: MIDAS protein-metabolite interaction

Compound	Observed measurement
CC(O)(CC(=O)O)CC(=O)SCCNC(=O)CCNC(=O)[C@H](O)C(C)(C)COP(=O)(O)OP(=O)(O)OC[C@H]1O[C@@H](n2cnc3c(N)ncnc32)[C@H](O)[C@@H]1OP(=O)(O)O (stereo partly drawn) [HMG-CoA, 3-hydroxy-3-methylglutaryl-CoA]	interacted
Nc1ncnc2c1ncn2[C@@H]1O[C@@H]2COP(=O)(O)O[C@H]2[C@H]1O [cAMP, cyclic adenosine monophosphate]	interacted
CC(C)(CO[P@@](=O)(O)O[P@@](=O)(O)OC[C@H]1O[C@@H](n2cnc3c(N)ncnc32)[C@H](O)[C@@H]1OP(=O)(O)O)[C@@H](O)C(=O)NCCC(=O)NCCSC(=O)CC(=O)O	interacted

----------
target: LDHA (Homo sapiens, UniProt P00338)
Reported IC50 values follow for various molecules

Given smiles	IC50
CCCCCCCCCCCC(=O)SCCNC(=O)CCNC(=O)[C@H](O)C(C)(C)COP(=O)(O)OP(=O)(O)OC[C@H]1O[C@@H](n2cnc3c(N)ncnc32)[C@H](O)[C@@H]1OP(=O)(O)O	> 100 µM
CCCCCCCC/C=C\CCCCCCCC(=O)SCCNC(=O)CCNC(=O)[C@H](O)C(C)(C)COP(=O)(O)OP(=O)(O)OC[C@H]1O[C@@H](n2cnc3c(N)ncnc32)[C@H](O)[C@@H]1OP(=O)(O)O	~1 µM
CCCCCCCCCCCCCCCC(=O)SCCNC(=O)CCNC(=O)[C@H](O)C(C)(C)COP(=O)(O)OP(=O)(O)OC[C@H]1O[C@@H](n2cnc3c(N)ncnc32)[C@H](O)[C@@H]1OP(=O)(O)O	~1 µM
CCCCCCCCCCCCCCCCCCCC(=O)SCCNC(=O)CCNC(=O)[C@H](O)C(C)(C)COP(=O)(O)OP(=O)(O)OC[C@H]1O[C@@H](n2cnc3c(N)ncnc32)[C@H](O)[C@@H]1OP(=O)(O)O	~1 µM

----------
target: fumarase (Homo sapiens); experiment: Differential scanning fluorimetry; format: binding; settings: read-out: apparent dissociation constant (Kd app); DSF, fumarase
pKd: −log10 of the molar value.
Observed property: pKd

> print(dat)
                       compound  observed.property  observed.measurement
1  O=C(O)/C=C/C(=O)O [fumarate]                pKd                  2.41

----------
biological target: PGAM2 (Homo sapiens, UniProt P15259); assay: MIDAS protein-metabolite interaction screen; type: binding; conditions: significant PMI Q < 0.01
Sequence (P15259 whole entry): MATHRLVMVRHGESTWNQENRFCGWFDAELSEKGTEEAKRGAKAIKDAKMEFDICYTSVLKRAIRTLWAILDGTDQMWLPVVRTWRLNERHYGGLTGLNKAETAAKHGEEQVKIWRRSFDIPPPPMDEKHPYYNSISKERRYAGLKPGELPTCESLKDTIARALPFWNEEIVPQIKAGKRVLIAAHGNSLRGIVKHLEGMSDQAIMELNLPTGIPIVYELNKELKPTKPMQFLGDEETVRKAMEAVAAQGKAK
Observed property: MIDAS protein-metabolite interaction

> print(dat)
                                   molecule                     observed.property  observed.measurement
1  CCCCCC(=O)OCC(COP(=O)(O)OC1C(O)C(O)C(OP(=O)(O)O)C(OP(=O)(O)O)C1O)OC(=O)CCCCC (centres unmarked)  MIDAS protein-metabolite interaction            interacted
2  C=C(OP(=O)(O)O)C(=O)O [PEP, phosphoenolpyruvate]  MIDAS protein-metabolite interaction            interacted
3  CCCCCC(=O)OCC(COP(=O)(O)OC1C(O)C(OP(=O)(O)O)C(OP(=O)(O)O)C(OP(=O)(O)O)C1O)OC(=O)CCCCC (centres unmarked)  MIDAS protein-metabolite interaction            interacted
4  O=C(O)C(COP(=O)(O)O)OP(=O)(O)O (centres unmarked) [2,3-BPG, 2,3-bisphosphoglycerate]  MIDAS protein-metabolite interaction            interacted
5  O=C(O)[C@H](O)COP(=O)(O)O [3PG, 3-phosphoglycerate]  MIDAS protein-metabolite interaction            interacted

The values you see were collected from paper PMC10262665.
